Consider the following compounds; for each one, report its log10 of MIC.
Tested on: Staphylococcus aureus
Assay: Antibacterial activity against Staphylococcus aureus NCIM 2079 after 24 hrs by NCCLS agar well diffusion method
Format: functional
Details: NCIM 2079, 24 h
In plain terms, each number is the log10 of measured MIC in mg/L.

Query block: Name the recorded log10 of MIC for O=C1NC(=O)/C(=C/c2ccc(/C=C/C(=O)c3cccs3)cc2)S1 .
Result block: 1.51

Query block: Name the recorded log10 of MIC for Cc1ccc(O)c(C(=O)/C=C/c2ccc(/C=C3\SC(=O)NC3=O)cc2)c1 .
Result block: 2.41

Query block: Name the recorded log10 of MIC for O=C1NC(=O)/C(=C/c2ccc(/C=C/C(=O)c3cccc(F)c3)cc2)S1 .
Result block: 1.51

Query block: Name the recorded log10 of MIC for O=C1NC(=O)/C(=C/c2ccc(/C=C/C(=O)c3ccc(Cl)cc3)cc2)S1 .
Result block: 1.51

Query block: Name the recorded log10 of MIC for O=C1NC(=O)/C(=C/c2ccc(/C=C/C(=O)c3cc(O)ccc3O)cc2)S1 .
Result block: 2.41

Query block: Name the recorded log10 of MIC for Cc1ccc(C(=O)/C=C/c2ccc(/C=C3\SC(=O)NC3=O)cc2)cc1 .
Result block: 1.51

Query block: Name the recorded log10 of MIC for O=C1NC(=O)/C(=C/c2ccc(/C=C/C(=O)c3ccccc3O)cc2)S1 .
Result block: 2.41

Query block: Name the recorded log10 of MIC for O=C1NC(=O)/C(=C/c2ccc(/C=C/C(=O)c3ccccc3)cc2)S1 .
Result block: 2.71

Query block: Name the recorded log10 of MIC for Cc1cccc(C(=O)/C=C/c2ccc(/C=C3\SC(=O)NC3=O)cc2)c1O .
Result block: 2.11

Query block: Name the recorded log10 of MIC for O=C1NC(=O)/C(=C/c2ccc(/C=C/C(=O)c3cc(OCc4ccccc4)cc(OCc4ccccc4)c3)cc2)S1 .
Result block: 1.20
